Molecular target: T1, Human Semaphorin3A-Sema Domain, TPP-19068 (human, UniProt Q14563 21-569)
T1 construct: produced inhouse in HEK293-6E; also called human monovalent Sema3A domain
T1 sequence: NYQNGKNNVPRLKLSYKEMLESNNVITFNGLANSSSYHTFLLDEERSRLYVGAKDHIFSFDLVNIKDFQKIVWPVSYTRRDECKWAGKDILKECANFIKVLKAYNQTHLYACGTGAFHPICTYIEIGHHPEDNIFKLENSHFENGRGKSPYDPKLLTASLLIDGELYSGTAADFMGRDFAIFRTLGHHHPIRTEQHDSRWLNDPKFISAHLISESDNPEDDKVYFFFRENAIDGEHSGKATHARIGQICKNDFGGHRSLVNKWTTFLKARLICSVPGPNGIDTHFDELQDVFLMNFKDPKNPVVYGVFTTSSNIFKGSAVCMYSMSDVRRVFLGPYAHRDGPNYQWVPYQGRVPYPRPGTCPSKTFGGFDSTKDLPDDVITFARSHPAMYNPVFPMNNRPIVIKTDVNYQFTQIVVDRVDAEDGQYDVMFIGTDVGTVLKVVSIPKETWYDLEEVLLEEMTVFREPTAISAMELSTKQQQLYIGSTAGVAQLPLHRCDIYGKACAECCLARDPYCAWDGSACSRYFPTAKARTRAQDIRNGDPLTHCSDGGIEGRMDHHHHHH
Assay: SPR, captured antibody, Sema3A domain analyte
pKd reference
Convention used: pKd is expressed as -log10 of the molar concentration.

Below, each entry is followed by its recorded pKd result.
BINDER: TPP-30790 (antibody, human IgG1, kappa, V domains shown, prior art, WO 2020/225400; also called BI clone III; Böhringer (BI) Clone III) VH: EVQLVESGGGLVQLGGSLRLSCAASGFTFSSYYMSWVRQAPGKGLEWVSTIIKSGGYAYYPDSVKDRFTISRDNSKNTLYLQMNSLRAEDTAVYYCVKGGQGAMDYWGQGTTVTVSS VL: EIVLTQSPATLSLSPGERATLSCRASQSIGDYLHWYQQKPGQAPRLLIYYASQSISGIPARFSGSGSGTDFTLTISSLEPEDFAVYYCQQGYSFPYTFGGGTKLEIKR
pKd: 10.82

BINDER: TPP-25255 (antibody, human IgG1, lambda, V domains shown) VH: EVQLLESGGGLVQPGGSLRLSCAASGFDFSSYEMNWVRQAPGKGLEWVSGISWNSGWIDYADSVKGRFTISRDNSKNTLYLQMNSLRAEDTAVYYCARSGYSSSWFDPDFDYWGQGTLVTVSS VL: QSVLTQPPSVSGAPGQRVTISCTGSSSNIGAGYDVHWYQQLPGTAPKLLIYGNSNRPSGVPDRFSGSKSGTSASLAITGLQAEDEADYYCQSYAGPNPYVVFGGGTKLTVLG
pKd: 10.29

BINDER: TPP-25655 (antibody, human IgG1, lambda, V domains shown) VH: EVQLLESGGGLVQPGGSLRLSCAASGFDFSSYEMNWVRQAPGKGLEWVSGISWNSGWIDYADSVKGRFTISRDNSKNTLYLQMNSLRAEDTAVYYCARSGYSSSWFDPDFDYWGQGTLVTVSS VL: QSVLTQPPSVSGAPGQRVTISCTGSSSNIGAGYDVHWYQQLPGTAPKLLIYGASNRPSGVPDRFSGSKSGTSASLAITGLQAEDEADYYCSSYEGPNPYVVFGGGTKLTVLG
pKd: 10.31

BINDER: TPP-25248 (antibody, human IgG1, lambda, V domains shown) VH: EVQLLESGGGLVQPGGSLRLSCAASGFDFSSYEMNWVRQAPGKGLEWVSGISWNSGWIGYADSVKGRFTISRDNSKNTLYLQMNSLRAEDTAVYYCARSGYSSSWFDPDFDYWGQGTLVTVSS VL: QSVLTQPPSVSGAPGQRVTISCTGSSSNIGAGYDVHWYQQLPGTAPKLLIYGNSNRPSGVPDRFSGSKSGTSASLAITGLQAEDEADYYCQSYAGPNPYVVFGGGTKLTVLG
pKd: 10.30

Please find the next binder below.
-- ask Could you tell me which pKd is on file for TPP-30791 (antibody, human IgG1, kappa, V domains shown, prior art, WO 2020/225400; also called BI clone IV; Böhringer (BI) Clone IV) VH: EVQLVESGGGLLQLGGSLRLSCAASGFTFSSYYMSWVRQAPGKGLEWVSTIIKSGGYAYYPDSVKDRFTISRDNSKNTLNLQMNSLRAEDTAVYYCVKGGQGAMDYWGQGTTVTVSS VL: EIVLTQSPATLSLSPGERATLSCRASQSIGDYLHWYQQKPGQAPRLLIKYASQSISGIPARFSGSGSGTDFTLTISSLEPEDFAVYYCQQGYSFPYTFGGGTKLEIKR ?
-- reply 10.92
